These data points were gathered from paper PMC13168289.

Attribute: IC50
# Test system: P. falciparum mutant T111 lines
# MEASUREMENT NOTES: drug susceptibility of T111-selected cyt b mutant lines
# Format: cell-based, Plasmodium falciparum
# TEST SETTINGS: Plasmodium falciparum, DD2, read-out: inhibition IC50 vs P. falciparum, Dd2-A^131S-140I-259L
Write down the numeric answer in nM and omit the unit.

INSERT INTO assay_data (structure, assay_target, reported_result) VALUES
  ('Cc1cc(Nc2ccc(S(F)(F)(F)(F)F)cc2)n2nc(C(C)(F)F)nc2n1', 'P. falciparum mutant T111 lines', 3.2);

Switching to the query record.
Inquiry: Give the value of IC50 reported for the following: `O=C1C(O)=C([C@H]2CC[C@H](c3ccc(Cl)cc3)CC2)C(=O)c2ccccc21`
Reply text: 4.7
